Reported protein stability index values for a set of variants
B1: KLHDC10 (parent)
chain: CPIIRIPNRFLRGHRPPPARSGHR

- Variants of: B1
- test: protein stability index of a GFP-peptide fusion (GPS, HEK-293T) (PSI 1-6); higher = more stable;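 also: lentivirally expressed fusions sorted by FACS into six bins by GFP to DsRed ratio, PSI derived from sequencing read proportions per bin multiplied by bin number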
- measurement.setup: c terminus: a fixed tail appended
In your answer, state the number alone without any accompanying words.

Known protein stability index results, listed for orientation:
variant.string | val
A19M | 2.12
R9V | 2.43
R15I | 1.28
I6H | 4.75
H23Q | 2.06
I3D | 2.16

Now consider the entry below.
Lab note: measured protein stability index of `H14V` was 2.46
